# Tested on: 521955-158-R2-J5-PDC complex spheroid growth
# test summary: Anticancer human tumor 521955-158-R2-J5-PDC patient-derived pancreatic carcinoma cell line growth inhibition [AhR]
# condition description: second compound 3.16 µM; first compound 0.00949 µM; stronger effect = lower value
measurement name: viability, T/C

See these solved cases before continuing.
Give the measured viability, T/C of CC(C)CC(NC(=O)C(Cc1ccccc1)NC(=O)c1cnccn1)B(O)O (stereo not drawn) + Cc1ccccc1N=Nc1ccc(NC(=O)c2ccnn2C)c(C)c1 .
82.3%

Would you mind doing CCN(c1cc(-c2ccc(CN3CCOCC3)cc2)cc(C(=O)NCc2c(C)cc(C)[nH]c2=O)c1C)C1CCOCC1 + Cc1ccccc1N=Nc1ccc(NC(=O)c2ccnn2C)c(C)c1 as well?
126%

Next item in the queue.
Give the measured viability, T/C of Nc1ncn(C2CC(O)C(CO)S2)c(=O)n1 (stereo not drawn) + Cc1cncc(-c2nc(NCCc3c[nH]c4ccccc34)c3ncn(C(C)C)c3n2)c1 .
122%

====

# Test system: 521955-158-R2-J5-PDC complex spheroid growth
# test summary: Anticancer human tumor 521955-158-R2-J5-PDC cell line growth inhibition [AhR];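 as to viability, T/C: spheroids mix tumor cells with HUVEC endothelium and human MSC stroma; luminescence taken as viability surrogate after a week of drug exposure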
# condition description: second compound 10 µM; first compound 0.01 µM; stronger effect = lower value
measurement name: viability, T/C

See these solved cases before continuing.
Give the measured viability, T/C of CC[C@@]1(O)C(=O)OCc2c1cc1n(c2=O)Cc2cc3c(CN(C)C)c(O)ccc3nc2-1 + Cc1cncc(-c2nc(NCCc3c[nH]c4ccccc34)c3ncn(C(C)C)c3n2)c1 .
94.5%

Would you mind doing CC1COCCN1c1cc(-c2ccnn2C)c2ccnc(-c3ccn[nH]3)c2n1 (configuration not stated) + CC(CO)NC(=O)c1cc(-c2ccc(Cl)cc2)nn(-c2cnn(C)c2)c1=O as well?
89.5%

Would you mind doing Nc1ncn(C2CC(O)C(CO)O2)c(=O)n1 (configuration not stated) + Cc1cncc(-c2nc(NCCc3c[nH]c4ccccc34)c3ncn(C(C)C)c3n2)c1 as well?
110%

Would you mind doing Nc1ncn(C2CC(O)C(CO)O2)c(=O)n1 (configuration not stated) + CC(CO)NC(=O)c1cc(-c2ccc(Cl)cc2)nn(-c2cnn(C)c2)c1=O as well?
87%

Would you mind doing CC1COCCN1c1cc(-c2ccnn2C)c2ccnc(-c3ccn[nH]3)c2n1 (configuration not stated) + Cc1ccccc1N=Nc1ccc(NC(=O)c2ccnn2C)c(C)c1 as well?
154%

Next item in the queue.
Give the measured viability, T/C of CC1COCCN1c1cc(-c2ccnn2C)c2ccnc(-c3ccn[nH]3)c2n1 (configuration not stated) + Cc1cncc(-c2nc(NCCc3c[nH]c4ccccc34)c3ncn(C(C)C)c3n2)c1 .
134%

====

# System: 521955-158-R2-J5-PDC complex spheroid growth
# test summary: Anticancer human tumor 521955-158-R2-J5-PDC cell line growth inhibition [AhR]
# condition description: curve of first compound; second compound 0.1 µM
pIC50: −log10 of the molar value.
Binary call on pIC50: yes from 6 upward, no beneath that.

Answered cases to consult:
Has CCN(c1cc(-c2ccc(CN3CCOCC3)cc2)cc(C(=O)NCc2c(C)cc(C)[nH]c2=O)c1C)C1CCOCC1 + CC(CO)NC(=O)c1cc(-c2ccc(Cl)cc2)nn(-c2cnn(C)c2)c1=O a recorded pIC50 greater than or equal to 6?
no

Would you mind doing CC[C@@]1(O)C(=O)OCc2c1cc1n(c2=O)Cc2cc3c(CN(C)C)c(O)ccc3nc2-1 + Cc1ccccc1N=Nc1ccc(NC(=O)c2ccnn2C)c(C)c1 as well?
yes

Would you mind doing CC(C)c1c(-c2ccccc2)nc2c(C#N)c[nH]n2c1=O + Cc1ccccc1N=Nc1ccc(NC(=O)c2ccnn2C)c(C)c1 as well?
no

Would you mind doing COc1cc(Nc2ncc3c(n2)-c2ccc(Cl)cc2C(c2c(F)cccc2OC)=NC3)ccc1C(=O)O + CC(CO)NC(=O)c1cc(-c2ccc(Cl)cc2)nn(-c2cnn(C)c2)c1=O as well?
no

Would you mind doing CC1COCCN1c1cc(C2(S(C)(=N)=O)CC2)nc(-c2ccnc3[nH]ccc23)n1 (configuration not stated) + CC(CO)NC(=O)c1cc(-c2ccc(Cl)cc2)nn(-c2cnn(C)c2)c1=O as well?
no

Further cases:
Has CC1COCCN1c1cc(C2(S(C)(=N)=O)CC2)nc(-c2ccnc3[nH]ccc23)n1 (configuration not stated) + Cc1ccccc1N=Nc1ccc(NC(=O)c2ccnn2C)c(C)c1 a recorded pIC50 greater than or equal to 6?
no

Would you mind doing COc1cc(Nc2ncc3c(n2)-c2ccc(Cl)cc2C(c2c(F)cccc2OC)=NC3)ccc1C(=O)O + Cc1ccccc1N=Nc1ccc(NC(=O)c2ccnn2C)c(C)c1 as well?
no

Would you mind doing NS(=O)(=O)OCC1CC(n2ccc3c(NC4CCc5ccccc54)ncnc32)CC1O (configuration not stated) + CC(CO)NC(=O)c1cc(-c2ccc(Cl)cc2)nn(-c2cnn(C)c2)c1=O as well?
yes

Would you mind doing CC[C@@]1(O)C(=O)OCc2c1cc1n(c2=O)Cc2cc3c(CN(C)C)c(O)ccc3nc2-1 + CC(CO)NC(=O)c1cc(-c2ccc(Cl)cc2)nn(-c2cnn(C)c2)c1=O as well?
yes

Would you mind doing COc1ccc([C@@H](O)c2cc(-c3ncnc4cc(N5CCOCC5)ccc34)c(F)cc2Cl)nn1 + Cc1cncc(-c2nc(NCCc3c[nH]c4ccccc34)c3ncn(C(C)C)c3n2)c1 as well?
no

====

# Test system: 521955-158-R2-J5-PDC complex spheroid growth
# test summary: Anticancer human tumor 521955-158-R2-J5-PDC cell line growth inhibition [AhR];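 as to viability, T/C: spheroids mix tumor cells with HUVEC endothelium and human MSC stroma; luminescence taken as viability surrogate after a week of drug exposure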
# condition description: second compound 3.16 µM; first compound 0.00949 µM; stronger effect = lower value
measurement name: viability, T/C (%)
Provide the reading as a plain figure in %.

Give the measured viability, T/C of CC(C)CC(NC(=O)C(Cc1ccccc1)NC(=O)c1cnccn1)B(O)O (stereo unspecified) + Cc1cncc(-c2nc(NCCc3c[nH]c4ccccc34)c3ncn(C(C)C)c3n2)c1 .
81.7

Would you mind doing CCN(c1cc(-c2ccc(CN3CCOCC3)cc2)cc(C(=O)NCc2c(C)cc(C)[nH]c2=O)c1C)C1CCOCC1 + Cc1cncc(-c2nc(NCCc3c[nH]c4ccccc34)c3ncn(C(C)C)c3n2)c1 as well?
158

Would you mind doing O=C(C=Cn1cnc(-c2cc(C(F)(F)F)cc(C(F)(F)F)c2)n1)NNc1cnccn1 + CC(CO)NC(=O)c1cc(-c2ccc(Cl)cc2)nn(-c2cnn(C)c2)c1=O as well?
58.9

Further cases:
Give the measured viability, T/C of CCc1c2c(nc3ccc(O)cc13)-c1cc3c(c(=O)n1C2)COC(=O)[C@]3(O)CC + CC(CO)NC(=O)c1cc(-c2ccc(Cl)cc2)nn(-c2cnn(C)c2)c1=O .
16.7

Would you mind doing Nc1ncn(C2CC(O)C(CO)S2)c(=O)n1 (stereo unspecified) + CC(CO)NC(=O)c1cc(-c2ccc(Cl)cc2)nn(-c2cnn(C)c2)c1=O as well?
141

Would you mind doing CC(C)CC(NC(=O)C(Cc1ccccc1)NC(=O)c1cnccn1)B(O)O (stereo unspecified) + CC(CO)NC(=O)c1cc(-c2ccc(Cl)cc2)nn(-c2cnn(C)c2)c1=O as well?
6.11

====

# viability, T/C per record follows
# System: 521955-158-R2-J5-PDC complex spheroid growth
# test summary: Anticancer human tumor 521955-158-R2-J5-PDC cell line growth inhibition [AhR];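 as to viability, T/C: spheroids mix tumor cells with HUVEC endothelium and human MSC stroma; luminescence taken as viability surrogate after a week of drug exposure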
# condition description: second compound 3.16 µM; first compound 0.000316 µM; stronger effect = lower value
Provide the reading as a plain figure in %.

See these solved cases before continuing.
Give the measured viability, T/C of CC[C@@]1(O)C(=O)OCc2c1cc1n(c2=O)Cc2cc3c(CN(C)C)c(O)ccc3nc2-1 + Cc1ccccc1N=Nc1ccc(NC(=O)c2ccnn2C)c(C)c1 .
119

Would you mind doing CC[C@@]1(O)C(=O)OCc2c1cc1n(c2=O)Cc2cc3c(CN(C)C)c(O)ccc3nc2-1 + Cc1cncc(-c2nc(NCCc3c[nH]c4ccccc34)c3ncn(C(C)C)c3n2)c1 as well?
155

Would you mind doing CC[C@@]1(O)C(=O)OCc2c1cc1n(c2=O)Cc2cc3c(CN(C)C)c(O)ccc3nc2-1 + CC(CO)NC(=O)c1cc(-c2ccc(Cl)cc2)nn(-c2cnn(C)c2)c1=O as well?
99.2

Would you mind doing Cn1ncnc1C1c2n[nH]c(=O)c3cc(F)cc(c23)NC1c1ccc(F)cc1 (stereo unspecified) + CC(CO)NC(=O)c1cc(-c2ccc(Cl)cc2)nn(-c2cnn(C)c2)c1=O as well?
118

Would you mind doing Cn1ncnc1C1c2n[nH]c(=O)c3cc(F)cc(c23)NC1c1ccc(F)cc1 (stereo unspecified) + Cc1ccccc1N=Nc1ccc(NC(=O)c2ccnn2C)c(C)c1 as well?
140

Next item in the queue.
Give the measured viability, T/C of Cn1ncnc1C1c2n[nH]c(=O)c3cc(F)cc(c23)NC1c1ccc(F)cc1 (stereo unspecified) + Cc1cncc(-c2nc(NCCc3c[nH]c4ccccc34)c3ncn(C(C)C)c3n2)c1 .
114
